Biological target: T1, recombinant human VEGF165 (human, UniProt P15692 27-191)
T1 construct: mature; Isoform VEGF165 of the entry; also called hVEGF165; hVEGF
T1 sequence (P15692 other isoform, or with tags, fused parts or gaps): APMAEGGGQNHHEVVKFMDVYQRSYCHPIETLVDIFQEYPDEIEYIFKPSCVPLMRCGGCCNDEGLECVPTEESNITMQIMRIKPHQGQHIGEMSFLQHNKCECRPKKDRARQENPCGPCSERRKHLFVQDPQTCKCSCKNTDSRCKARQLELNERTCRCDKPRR
Experiment: Biacore SPR, VEGF immobilized, pH 7.4
kon values by entry
measurement_kind: kon

binder="509-max (scFv, VL and VH tied by name; also called Protein Nr; 855) scFv: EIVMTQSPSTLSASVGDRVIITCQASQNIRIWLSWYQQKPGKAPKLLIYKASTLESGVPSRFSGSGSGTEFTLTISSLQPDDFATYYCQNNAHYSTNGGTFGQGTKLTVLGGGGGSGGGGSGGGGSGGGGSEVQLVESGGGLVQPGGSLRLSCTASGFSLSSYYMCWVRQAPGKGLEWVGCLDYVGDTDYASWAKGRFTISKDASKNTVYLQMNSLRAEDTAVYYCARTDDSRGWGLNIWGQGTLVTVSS" measurement_kind=kon value_observed="1.42e+06 M⁻¹ s⁻¹"
binder="375-max (scFv, VL and VH tied by name; also called Protein Nr; 873) scFv: EIVMTQSPSTLSASVGDRVIITCQASENINIWLSWYQQKPGKAPKLLIYQASKLASGVPSRFSGSGSGTQFTLTISSLQPDDFATYYCQNNYSYNRYGAPFGQGTKLTVLGGGGGSGGGGSGGGGSGGGGSEVQLVESGGGLVQPGGSLRLSCKASGFSFTTTDYMCWVRQAPGKGLEWVGCILAGDGSTYYANWAKGRFTGSKDTSKNTVYLQMNSLRAEDTAVYYCARSDPASSWSFALWGQGTLVTVSS" measurement_kind=kon value_observed="5.09e+07 M⁻¹ s⁻¹"
